measured-on: IDH1 R132H (Homo sapiens (Human), UniProt O75874, R132H)
Sequence (O75874 whole entry R132H): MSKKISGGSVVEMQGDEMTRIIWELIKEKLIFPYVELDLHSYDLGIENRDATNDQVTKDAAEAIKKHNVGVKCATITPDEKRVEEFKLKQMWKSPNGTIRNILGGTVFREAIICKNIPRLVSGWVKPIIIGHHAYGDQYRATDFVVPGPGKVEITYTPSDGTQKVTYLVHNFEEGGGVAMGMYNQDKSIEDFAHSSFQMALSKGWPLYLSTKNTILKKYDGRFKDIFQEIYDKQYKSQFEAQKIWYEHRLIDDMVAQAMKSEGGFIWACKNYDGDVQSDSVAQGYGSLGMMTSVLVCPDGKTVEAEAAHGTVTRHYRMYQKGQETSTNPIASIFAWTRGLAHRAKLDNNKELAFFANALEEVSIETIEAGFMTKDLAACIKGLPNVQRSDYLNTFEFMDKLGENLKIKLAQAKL
experimental-protocol: Assays for IDH1 R132H Inhibitors (NADPH/aKG, resazurin detection)
Assay type: biochemical
condition-parameters: IDH1 R132H enzyme, Table 2; read-out: IDHR132H Activity
pIC50: −log10 of the molar value.
metric-name: pIC50

Some solved cases for reference:
Recorded result, CC(C)[C@@H]1CN(c2nc(C3CC3)c3c(c2C#N)CC(C)(C)OC3)CCN1C(=O)COCC1CC1 [Compound 390] , pIC50: 6.00 to 6.30

Sample COC(=O)C1CN(c2nc(C3CC3)c3c(c2C#N)CC(C)(C)OC3)CCN1C(=O)c1ccoc1C (stereo not drawn) [Compound 394] ; pIC50 observed: 6.00 to 6.30

GET /value?item= C=CCNC(=O)N1CCN(c2nc(C3CC3)c3c(c2C#N)CC(C)(C)OC3)C[C@H]1C(C)C [Compound 304] &field=pIC50 returns > 6.30

Entry CC(C)c1nc(N2CCN(C(=O)c3ccoc3)[C@@H](c3ccccc3)C2)c(C#N)c2c1COC(C)(C)C2 [Compound 257] — recorded pIC50 = 5.00 to 6.00

The measured pIC50 associated with CC1CN(c2nc(C3CCCCC3)c3c(c2C#N)CCOC3)CCN1C(=O)c1ccc2[nH]ccc2c1 (stereo not drawn) [Compound 134] reads 5.00 to 6.00

response.value for CCOC(=O)N1CCN(c2nc(C3CC3)c3c(c2C#N)CC(C)(C)OC3)C[C@H]1C(C)C [Compound 367] (field: pIC50) = 5.00 to 6.00

Continuing:
Reported pIC50 for C=CCNC(=O)N1CCN(c2nc(C3CCCCC3)c3c(c2C#N)CCOC3)CC1C(=O)OCC (stereo not drawn) [Compound 330] was 5.00 to 6.00

Sure, the documented pIC50 for C[C@@H]1CN(c2nc(C3CCCC3)c3c(c2C#N)CCOC3)C[C@H](C)N1C(=O)c1ccco1 [Compound 126] is 5.00 to 6.00

For C[C@@H]1CN(c2nc(C3CCCCC3)c3c(c2C#N)CCOC3)CCN1C(=O)Cc1ccccc1F [Compound 188] the compound record lists pIC50 as 5.00 to 6.00

Summary for this compound, Cc1nc2ccccn2c1C(=O)N1CCN(c2nc(C3CCCCC3)c3c(c2C#N)CCOC3)C[C@H]1C [Compound 190] : pIC50 is 5.00 to 6.00

The recorded pIC50 for CC(C)c1nc(N2CCN(C(=O)c3ccsc3)[C@H](C)C2)c(C#N)c2c1COC(C)(C)C2 [Compound 251] is 5.00 to 6.00

Documented pIC50 of CC(C)c1nc(N2CC(C)N(C(=O)NC3CCCCC3)C(C)C2)c(C#N)c2c1COCC2 (stereo not drawn) [Compound 108] : 5.00 to 6.00

Entry CC1CN(c2nc(C3CC3)c3c(c2C#N)CC(C)(C)OC3)CCN1C(=O)c1ccco1 (stereo not drawn) [Compound 135] — recorded pIC50 = 5.00 to 6.00

The value of pIC50 measured for the compound C=CCNC(=O)N1CCN(c2nc(C(C)C)c3c(c2C#N)CC(C)(C)OC3)CC1C(=O)OCC (stereo not drawn) [Compound 331] turned out to be 5.00 to 6.00

Per the records, this compound ( CC[C@@H]1CN(c2nc(C3CC3)c3c(c2C#N)CC(C)(C)OC3)CCN1C(=O)Cc1cccc(OC)c1 [Compound 296] ) has pIC50 equal to 6.00 to 6.30

// pIC50 lookup, compound = COc1cccc(CC(=O)N2CCN(c3nc(C4CCCCC4)c4c(c3C#N)CCOC4)C[C@H]2C)c1 [Compound 189] , result: 5.00 to 6.00

Note to self: pIC50 recorded for COCCC(=O)N1CCN(c2nc(C3CC3)c3c(c2C#N)CC(C)(C)OC3)CC1C(=O)OC (stereo not drawn) [Compound 388] was 6.00 to 6.30
